test system: IL-1β, IL-6, IFN-γ, TNF-α, IL-8, MIP-1α, MCP-1, MIP-1β, RANTES; assay: Cytokine and chemokine assays in cynomolgus monkeys (Example 46); format: in vivo; details: day 55
Strand notation (5' to 3'): a small letter for the sugar, then the base; units joined by * are phosphorothioate-linked, units joined directly phosphodiester-linked; [ ] holds rarer units or linkages, { } end groups; capitals alone tell only the bases. e = 2'-O-(2-methoxyethyl) (MOE); [5mC] = 5-methylcytosine; d = 2'-deoxy (DNA)
# RANTES level annotations

- substance: "ISIS 449708: 3-8-3, 4-8-4, 2-10-2, 3-10-3 or 4-10-4 MOE microwalk gapmer (Table 46) (antisense eA*e[5mC]*eA*dG*dT*dT*dT*d[5mC]*dT*dG*dG*e[5mC]*eA*eG)"
  test.target: "IL-1β, IL-6, IFN-γ, TNF-α, IL-8, MIP-1α, MCP-1, MIP-1β, RANTES"
  RANTES level, pg/mL: 4561
- substance: "ISIS 445531: 5-8-5 or 6-8-6 MOE microwalk gapmer (Table 44) (antisense eG*eG*e[5mC]*eA*eT*dT*dG*dG*dT*dG*d[5mC]*dA*d[5mC]*eA*eG*eT*eT*eT)"
  test.target: "IL-1β, IL-6, IFN-γ, TNF-α, IL-8, MIP-1α, MCP-1, MIP-1β, RANTES"
  RANTES level, pg/mL: 5935
- substance: "ISIS 416858: MOE gapmer, nucleobases 1275 to 1318 of SEQ ID NO: 1 (Table 8) (antisense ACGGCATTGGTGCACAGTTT; MOE gapmer, wing and gap sizes not given here)"
  test.target: "IL-1β, IL-6, IFN-γ, TNF-α, IL-8, MIP-1α, MCP-1, MIP-1β, RANTES"
  RANTES level, pg/mL: 5925
- substance: "ISIS 449710: 3-8-3, 4-8-4, 2-10-2, 3-10-3 or 4-10-4 MOE microwalk gapmer (Table 46) (antisense e[5mC]*eA*e[5mC]*dA*dG*dT*dT*dT*d[5mC]*dT*dG*dG*d[5mC]*eA*eG*eG)"
  test.target: "IL-1β, IL-6, IFN-γ, TNF-α, IL-8, MIP-1α, MCP-1, MIP-1β, RANTES"
  RANTES level, pg/mL: 22656
- substance: "ISIS 449707: 3-8-3, 4-8-4, 2-10-2, 3-10-3 or 4-10-4 MOE microwalk gapmer (Table 46) (antisense e[5mC]*eA*e[5mC]*eA*dG*dT*dT*dT*d[5mC]*dT*dG*dG*e[5mC]*eA*eG*eG)"
  test.target: "IL-1β, IL-6, IFN-γ, TNF-α, IL-8, MIP-1α, MCP-1, MIP-1β, RANTES"
  RANTES level, pg/mL: 1193
